# System tested: EphB3(h) (Homo sapiens, UniProt P54753)
# Sequence (P54753 34-998): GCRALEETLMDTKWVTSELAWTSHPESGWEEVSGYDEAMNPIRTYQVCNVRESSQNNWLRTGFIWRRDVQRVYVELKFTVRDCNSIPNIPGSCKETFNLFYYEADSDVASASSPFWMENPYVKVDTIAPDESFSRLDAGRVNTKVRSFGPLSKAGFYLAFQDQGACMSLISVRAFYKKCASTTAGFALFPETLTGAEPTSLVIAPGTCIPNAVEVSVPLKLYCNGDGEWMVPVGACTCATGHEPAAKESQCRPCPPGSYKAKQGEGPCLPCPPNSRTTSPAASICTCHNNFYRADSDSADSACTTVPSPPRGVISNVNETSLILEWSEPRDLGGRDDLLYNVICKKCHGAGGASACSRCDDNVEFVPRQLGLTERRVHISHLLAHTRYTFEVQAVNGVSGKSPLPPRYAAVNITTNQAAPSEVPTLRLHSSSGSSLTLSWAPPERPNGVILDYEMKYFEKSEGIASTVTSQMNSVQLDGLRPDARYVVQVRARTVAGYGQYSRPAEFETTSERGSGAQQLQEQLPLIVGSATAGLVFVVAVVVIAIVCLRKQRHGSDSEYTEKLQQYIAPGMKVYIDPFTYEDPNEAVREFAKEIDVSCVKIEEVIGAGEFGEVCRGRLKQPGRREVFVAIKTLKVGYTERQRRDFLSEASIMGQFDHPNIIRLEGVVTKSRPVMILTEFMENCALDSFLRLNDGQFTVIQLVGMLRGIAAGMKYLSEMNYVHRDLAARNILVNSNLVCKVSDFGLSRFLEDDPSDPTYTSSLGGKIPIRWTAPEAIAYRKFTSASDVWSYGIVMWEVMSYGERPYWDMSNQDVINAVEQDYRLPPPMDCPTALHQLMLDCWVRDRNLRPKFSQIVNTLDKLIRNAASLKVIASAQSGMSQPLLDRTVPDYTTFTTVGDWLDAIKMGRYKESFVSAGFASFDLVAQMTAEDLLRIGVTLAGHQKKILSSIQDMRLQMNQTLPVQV
# Procedure text: Kinase Profiling Assay
# Format: biochemical
# Run parameters: 100 μM
Assay readout: % activity
Give the number first and the unit second.

Please give the measured % activity for this sequence: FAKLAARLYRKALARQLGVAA [MMI-0300] 62%

More entries:
Please give the measured % activity for this sequence: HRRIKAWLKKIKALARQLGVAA [MMI-0500] 79%

Lookup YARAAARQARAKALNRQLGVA [MMI-0200] 128%

Lookup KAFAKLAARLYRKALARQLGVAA [MMI-0400] 47%
